# System: MDA-MB-468 spheroids with HUVEC/MSC, viability
# EXPERIMENTAL DETAILS: Anticancer human tumor MDA-MB-468 cell line growth inhibition [PI3K];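 note: spheroids exposed to agents for seven days before readout; 100% = DMSO vehicle control viability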
# MEASUREMENT CONTEXT: second compound 0.1 µM; first compound 0.0316 µM; stronger effect = lower value
viability, T/C reference

Ask: Report value: viability, T/C, system: MDA-MB-468 spheroids with HUVEC/MSC, viability, compound: CCCS(=O)(=O)Nc1ccc(F)c(C(=O)c2c[nH]c3ncc(-c4ccc(Cl)cc4)cc23)c1F + Cc1nc(NC(=O)N2CCCC2C(N)=O)sc1-c1ccnc(C(C)(C)C(F)(F)F)c1
Reply: 92.8%

Ask: Report value: viability, T/C, system: MDA-MB-468 spheroids with HUVEC/MSC, viability, compound: CC(C)NCC(C(=O)N1CCN(c2ncnc3c2C(C)CC3O)CC1)c1ccc(Cl)cc1 (stereo not drawn) + COc1c(OCCCN2CCOCC2)ccc2c3n(c(=NC(=O)c4cnc(N)nc4)nc12)CCN3
Reply: 57.4%

Ask: Report value: viability, T/C, system: MDA-MB-468 spheroids with HUVEC/MSC, viability, compound: CC(=O)c1c(C)c2cnc(Nc3ccc(N4CCNCC4)cn3)nc2n(C2CCCC2)c1=O + CC(Nc1ncnc2nc[nH]c12)c1cc2cccc(Cl)c2c(=O)n1-c1ccccc1
Reply: 80%

// data source = PubChem BioAssay AID1963960
